- STUDY TARGET: human AspH (His6-AspH315–758) (Homo sapiens, UniProt Q12797)
- Construct: N-Terminally His6-tagged human AspH315–758 (His6-AspH315–758) was produced in Escherichia coli BL21 (DE3) cells; made in house; host or cells: Escherichia coli BL21 (DE3), pET-28a(+) vector
- Sequence (Q12797 315-758): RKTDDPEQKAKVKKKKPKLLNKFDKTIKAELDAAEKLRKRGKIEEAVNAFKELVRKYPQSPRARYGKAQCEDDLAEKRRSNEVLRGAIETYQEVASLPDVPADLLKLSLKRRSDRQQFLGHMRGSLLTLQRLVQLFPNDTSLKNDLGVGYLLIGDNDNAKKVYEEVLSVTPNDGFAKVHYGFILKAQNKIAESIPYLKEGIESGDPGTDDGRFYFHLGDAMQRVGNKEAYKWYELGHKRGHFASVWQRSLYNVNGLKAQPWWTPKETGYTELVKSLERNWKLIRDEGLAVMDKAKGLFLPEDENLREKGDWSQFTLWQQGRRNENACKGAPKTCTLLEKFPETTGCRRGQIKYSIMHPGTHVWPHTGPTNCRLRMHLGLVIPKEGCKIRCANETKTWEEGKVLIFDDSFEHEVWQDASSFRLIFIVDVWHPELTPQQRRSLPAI
- TEST NAME: SPE-MS AspH inhibition assay (hFX-CP101-119 substrate hydroxylation)
- Format: biochemical
- CONDITION SUMMARY: AspH-inhibitor screening, 384-well Plate 1, substrate conversion
PROPERTY NAME: Plate 1 (% conversion) (%)

In [3]: df
Out[3]:
                                   compound  endpoint_value
0                         Oc1ncnc2[nH]ncc12           50.03
1  CN(C)C(=N)NC(=N)N.Cl [Metformin hydrochloride aq]           47.42
2  C[C@H]1C[C@@H]2[C@H]([C@@H](O)C[C@@]3(C)[C@H]2CC[C@]3(O)C(=O)CO)[C@@]2(C)C=CC(=O)C=C12           45.75
3  Cc1ccc(-c2cc(C(F)(F)F)nn2-c2ccc(S(N)(=O)=O)cc2)cc1           53.57
4  CC(=O)c1c(C)c2cnc(Nc3ccc(N4CCNCC4)cn3)nc2n(C2CCCC2)c1=O [PD-0332991]           49.23
5  C/C=C1\NC(=O)[C@H]2CSSCC/C=C/[C@H](CC(=O)N[C@H](C(C)C)C(=O)N2)OC(=O)[C@H](C(C)C)NC1=O           35.08
6  CN[C@@H]1C[C@H]2O[C@@](C)([C@@H]1OC)n1c3ccccc3c3c4c(c5c6ccccc6n2c5c31)C(=O)N[C@H]4O           48.30
7     C[C@]1(c2nc3c(C(N)=O)cccc3[nH]2)CCCN1           46.97
